experiment_notes: chemical genetic growth profiling, strain panel (AID 1159580);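 also: tested at 20 µM; growth read once vehicle control cultures reached saturation at 30 °C; 1 = growth at the plate median or of vehicle wells; lower values mean less growth of the strain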
condition_parameters: S. cerevisiae deletion strains, growth OD, locus YMR231W, strain pep5, hits give low values
The campaign covered roughly 5,500 compounds. About 2,000 (36%) were called active. Not shown: some 18% with an inconclusive outcome. Some of the results follow.
What normalized growth was measured for each of the following?
Give bare numbers.

Look over these answered cases.
[
  {
    "compound": "Nc1cc(C(Cl)=C(Cl)Cl)c(S(N)(=O)=O)cc1S(N)(=O)=O",
    "measurement_kind": "normalized growth",
    "val": 1.01
  },
  {
    "compound": "C=C1C2=CC(=O)O[C@@H](c3ccoc3)[C@]2(C)CCC1[C@@]1(C)C=CC(=O)C(C)(C)[C@@H]1CC(=O)OC (some centres not stated)",
    "measurement_kind": "normalized growth",
    "val": 0.973
  },
  {
    "compound": "COc1cc(S(C)=O)ccc1-c1nc2ncccc2[nH]1 (configuration not stated)",
    "measurement_kind": "normalized growth",
    "val": 0.99
  }
]

// for each compound in input: emit normalized growth
1. C=C1C2CC[C@@]3(C)[C@H](c4ccoc4)OC(=O)C[C@]13O[C@H]1CC(=O)C(C)(C)C(CC(=O)OC)[C@@]21C (some centres not stated)
2. N#C/C(=C\c1cccc(O)c1)C(=O)O
3. OC[C@H]1OC([S-])[C@H](O)[C@@H](O)[C@@H]1O.[Au+] (some centres not stated)
4. Cc1cc(O)c(C=O)c2c1C(=O)Oc1c(COC(=O)/C=C/C(=O)O)c(O)c(C(=O)O)c(C)c1O2
5. O=C(Nc1ccccc1)Nc1ccccc1
6. COC(=O)CCCOc1ccc(Cl)cc1Cl
7. Clc1ccc2c(c1)C(N1CCNCC1)=Nc1ccccc1O2

Given back:
1: 0.943; 2: 0.991; 3: 1.01; 4: 0.94; 5: 0.99; 6: 0.949; 7: 0.487

Would you mind listing normalized growth for each of the following compounds?
1. CC(CN(C)C)CN1c2ccccc2CCc2ccccc21 (configuration not stated)
2. CC(CN(C)C)CN1c2ccccc2Sc2ccccc21 (configuration not stated)
3. O=c1cc(-c2ccccc2)oc2cccc(O)c12
4. O=c1cc(-c2ccccc2)oc2cc(O)c(O)c(O)c12

Given back:
1: 0.984; 2: 1.03; 3: 0.986; 4: 0.398

Provide each entry's normalized growth from the list below.
1. CN(CCC(N)CC(=O)N[C@H]1C=CC(n2ccc(N)nc2=O)O[C@@H]1C(=O)O)C(=N)N (some centres not stated)
2. O=[N+]([O-])c1cccc2cn[nH]c12
3. CN(C)C(=O)Nc1ccc(Cl)c(Cl)c1
4. Cc1cc(C)cc(OCC2CNC(=O)O2)c1 (configuration not stated)
5. C/C=C/C(=O)N(CC)c1ccccc1C
6. CN(C)CCOC(=O)COc1ccc(Cl)cc1
7. c1ccc2nc(N3CCNCC3)ccc2c1

Given back:
[0.734, 1, 1, 0.964, 1.01, 0.976, 1.01]

State the recorded normalized growth for every item in the following list.
1. CCCCS(=N)(=O)CCC(N)C(=O)O (configuration not stated)
2. N[C@@H]1[C@@H](O)[C@H](O)[C@@H](CO)O[C@H]1O
3. CC12CC3CC(C)(C1)CC(N)(C3)C2
4. Nc1ccn(C2O[C@H](CO)[C@@H](O)[C@H]2O)c(=O)n1 (some centres not stated)
5. Nc1cc(-c2ccncc2)c[nH]c1=O
6. CC(=O)N=c1sc(S(N)(=O)=O)nn1C
7. NCC(CC(=O)O)c1ccc(Cl)cc1 (configuration not stated)
8. CN(C)CCOC(=O)C(c1ccccc1)C1(O)CCCC1 (configuration not stated)

Given back:
0.997
1.02
0.982
0.979
0.965
1.01
1.01
0.975

Quick batch: normalized growth for everything below.
1. O=C(O)c1ccccc1C(=O)Nc1ccc(S(=O)(=O)Nc2nccs2)cc1
2. CCC(=O)Nc1ccc(Cl)c(Cl)c1
3. COc1cc(C)c(C(=O)Oc2cc(C)c(C(=O)O)c(O)c2C)c(OC)c1C
4. O=C(O)CCC(=O)Nc1ccc(S(=O)(=O)Nc2nccs2)cc1
5. CCN(CC)C(C)CN1c2ccccc2Sc2ccccc21 (configuration not stated)

Given back:
0.974
0.997
0.988
1
1.01

Hi team, please reply with normalized growth for each item in this list.
1. CN[C@@H]1[C@H](OC2[C@H](O[C@H]3[C@H](O)[C@@H](O)[C@H](N=C(N)N)[C@@H](O)[C@@H]3N=C(N)N)O[C@@H](C)[C@]2(O)C=O)O[C@@H](CO)[C@H](O)[C@H]1O (some centres not stated)
2. C[C@@H]1CC2C3C[C@H](F)C4=CC(=O)C=C[C@]4(C)[C@@]3(F)[C@@H](O)C[C@]2(C)[C@@]1(O)C(=O)COC(=O)C(C)(C)C (some centres not stated)

Given back:
1. 0.997
2. 0.998

Asked: Given `C[C@@H](N)[C@@H](O)c1ccccc1` , state its recorded normalized growth.
Given back: 1
